All figures here come from ChEMBL document CHEMBL4680201.

Assay: AUC (0 to t) in ICR mouse at 10 mg/kg, iv administered as single dose by LC-MS/MS analysis
Type: ADME, organism-based
Design: dose 10 mg/kg
Conditions: in vivo
outcomeMeasure: AUC(0-t) (ng·h/mL)
# value in ng·h/mL; strip the unit string

Which AUC(0-t) is reported for this compound? `C=CC(=O)Nc1ccc(-c2ccnc(Nc3ccc(N4CCOCC4)cc3)n2)cc1` 1240

###

Assay: AUC (0 to infinity) in ICR mouse at 10 mg/kg, iv administered as single dose by LC-MS/MS analysis
Assay type: ADME, organism-based
Set-up: route intravenous, time infinity, dose 10 mg/kg
Details: in vivo
outcomeMeasure: AUC(0-inf) (ng·h/mL)
# value in ng·h/mL; strip the unit string

Which AUC(0-inf) is reported for this molecule? `C=CC(=O)Nc1ccc(-c2ccnc(Nc3ccc(N4CCOCC4)cc3)n2)cc1` 1270

###

Biological target: Tyrosine-protein kinase JAK1 (Homo sapiens)
Sequence (P23458 whole entry, the tested form may be a part): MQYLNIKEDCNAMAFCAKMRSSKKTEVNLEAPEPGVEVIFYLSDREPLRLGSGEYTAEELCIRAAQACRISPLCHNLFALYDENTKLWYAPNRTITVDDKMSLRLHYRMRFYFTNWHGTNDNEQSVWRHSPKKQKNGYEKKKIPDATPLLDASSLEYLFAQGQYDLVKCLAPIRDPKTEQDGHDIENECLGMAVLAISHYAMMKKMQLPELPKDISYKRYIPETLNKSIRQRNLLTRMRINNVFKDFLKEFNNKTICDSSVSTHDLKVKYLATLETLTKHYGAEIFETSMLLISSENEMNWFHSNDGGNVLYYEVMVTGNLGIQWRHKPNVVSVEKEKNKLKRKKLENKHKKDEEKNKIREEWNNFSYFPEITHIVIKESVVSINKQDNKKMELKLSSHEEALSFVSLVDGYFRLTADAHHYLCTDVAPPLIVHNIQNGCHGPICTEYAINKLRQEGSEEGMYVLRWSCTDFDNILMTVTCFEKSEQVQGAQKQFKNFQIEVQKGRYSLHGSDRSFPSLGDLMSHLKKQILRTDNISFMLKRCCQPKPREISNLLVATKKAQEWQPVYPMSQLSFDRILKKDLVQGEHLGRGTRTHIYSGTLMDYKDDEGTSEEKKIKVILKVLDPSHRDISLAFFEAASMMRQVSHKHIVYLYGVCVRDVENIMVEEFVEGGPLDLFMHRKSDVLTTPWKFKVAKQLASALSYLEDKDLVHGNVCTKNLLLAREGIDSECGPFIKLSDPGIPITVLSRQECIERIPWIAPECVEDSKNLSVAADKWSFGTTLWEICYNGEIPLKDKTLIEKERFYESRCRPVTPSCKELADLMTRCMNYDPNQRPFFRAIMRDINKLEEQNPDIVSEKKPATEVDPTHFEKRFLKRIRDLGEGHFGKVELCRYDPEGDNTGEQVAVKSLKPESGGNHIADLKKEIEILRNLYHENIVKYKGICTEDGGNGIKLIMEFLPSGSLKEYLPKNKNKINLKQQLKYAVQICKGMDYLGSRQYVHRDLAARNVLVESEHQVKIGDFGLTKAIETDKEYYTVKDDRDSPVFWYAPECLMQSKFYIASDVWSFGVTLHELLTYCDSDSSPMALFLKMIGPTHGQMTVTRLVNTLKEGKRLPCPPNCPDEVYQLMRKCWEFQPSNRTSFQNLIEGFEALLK
Experiment: Inhibition of recombinant human GST-tagged JAK1 cytoplasmic domain (866 to 1154 residues) expressed in baculovirus expression system using TK-substrate-biotin preincubated for 5 mins followed by substrate addition and measured after 30 mins by HTRF assay
API: label(entry) gives YES if the entry's IC50 is strictly smaller than 1 µM; on equality or larger values it gives NO.

hey, is IC50 for `C/C=C/C(=O)Nc1cccc(-c2cc(Nc3ccc(N4CCOCC4)cc3)ncn2)c1` lower than 1 µM or not? NO

hey, is IC50 for `C/C=C/C(=O)Nc1cccc(-c2cc(Nc3cnn(CCOC)c3)ncn2)c1` lower than 1 µM or not? NO

hey, is IC50 for `C=CC(=O)Nc1ccc(-c2cc(Nc3ccc(N4CCOCC4)cc3)ncn2)cc1` lower than 1 µM or not? YES

hey, is IC50 for `C=CC(=O)Nc1cccc(-c2cc(Nc3cnn(CCOC)c3)ncn2)c1` lower than 1 µM or not? YES

hey, is IC50 for `N#CCC(=O)NCC(=O)Nc1cccc(-c2cc(Nc3ccc(N4CCOCC4)cc3)ncn2)c1` lower than 1 µM or not? NO

hey, is IC50 for `C/C=C/C(=O)Nc1cccc(-c2cc(Nc3cnn(C)c3)ncn2)c1` lower than 1 µM or not? NO

hey, is IC50 for `C=CC(=O)Nc1ccc(-c2ccnc(Nc3ccc(N4CCOCC4)cc3)n2)cc1` lower than 1 µM or not? NO

hey, is IC50 for `C/C=C/C(=O)NCC(=O)Nc1cccc(-c2cc(Nc3cnn(CCOC)c3)ncn2)c1` lower than 1 µM or not? YES

hey, is IC50 for `C=CC(=O)Nc1cccc(-c2ccnc(Nc3ccc(N4CCOCC4)cc3)n2)c1` lower than 1 µM or not? NO

hey, is IC50 for `C/C=C/C(=O)Nc1ccc(-c2ccnc(Nc3cnn(CCOC)c3)n2)cc1` lower than 1 µM or not? NO

###

Target: ITK (Tyrosine-protein kinase ITK/TSK) (Homo sapiens, UniProt Q08881)
Sequence (Q08881 whole entry): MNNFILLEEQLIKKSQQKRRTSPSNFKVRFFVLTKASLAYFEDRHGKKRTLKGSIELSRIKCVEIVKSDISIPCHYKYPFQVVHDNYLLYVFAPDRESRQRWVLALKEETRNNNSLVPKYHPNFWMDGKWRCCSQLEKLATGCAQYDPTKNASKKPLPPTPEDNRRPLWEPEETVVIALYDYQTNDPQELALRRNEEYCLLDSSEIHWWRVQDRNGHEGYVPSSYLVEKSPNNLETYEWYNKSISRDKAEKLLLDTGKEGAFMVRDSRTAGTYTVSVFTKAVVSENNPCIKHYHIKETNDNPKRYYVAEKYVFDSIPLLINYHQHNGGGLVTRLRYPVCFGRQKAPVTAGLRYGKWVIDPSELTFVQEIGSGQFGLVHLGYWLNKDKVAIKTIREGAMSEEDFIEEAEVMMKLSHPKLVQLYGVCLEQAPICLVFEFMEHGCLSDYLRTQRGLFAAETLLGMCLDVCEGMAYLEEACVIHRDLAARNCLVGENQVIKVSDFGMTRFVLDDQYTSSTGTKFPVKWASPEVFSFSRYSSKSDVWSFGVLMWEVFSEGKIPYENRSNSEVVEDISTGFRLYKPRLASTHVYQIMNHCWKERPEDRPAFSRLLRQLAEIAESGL
Assay: Inhibition of recombinant human GST-tagged full length ITK expressed in baculovirus expression system at 100 nM using Tyr01 peptide as substrate incubated for 1 hr by Z'lyte assay relative to control
Conditions: probe Tyr01 peptide
outcomeMeasure: inhibition at 1 h, 0.1 µM (%)
# value in %; strip the unit string

Which inhibition at 1 h, 0.1 µM is reported for this compound? `C=CC(=O)Nc1ccc(-c2ccnc(Nc3ccc(N4CCOCC4)cc3)n2)cc1` 2.3
